STUDY_TARGET: Strep‐TP‐spacer‐RT‐His8 (HBVpol 1‐690aa; TP‐RT) (Hepatitis B virus ar/Japan/S-207/1988)
Construct: gene P; residues 1-690 of HBV polymerase (TP, spacer, RT); no polymerase activity detected
Sequence (Q9YZR5 1-690): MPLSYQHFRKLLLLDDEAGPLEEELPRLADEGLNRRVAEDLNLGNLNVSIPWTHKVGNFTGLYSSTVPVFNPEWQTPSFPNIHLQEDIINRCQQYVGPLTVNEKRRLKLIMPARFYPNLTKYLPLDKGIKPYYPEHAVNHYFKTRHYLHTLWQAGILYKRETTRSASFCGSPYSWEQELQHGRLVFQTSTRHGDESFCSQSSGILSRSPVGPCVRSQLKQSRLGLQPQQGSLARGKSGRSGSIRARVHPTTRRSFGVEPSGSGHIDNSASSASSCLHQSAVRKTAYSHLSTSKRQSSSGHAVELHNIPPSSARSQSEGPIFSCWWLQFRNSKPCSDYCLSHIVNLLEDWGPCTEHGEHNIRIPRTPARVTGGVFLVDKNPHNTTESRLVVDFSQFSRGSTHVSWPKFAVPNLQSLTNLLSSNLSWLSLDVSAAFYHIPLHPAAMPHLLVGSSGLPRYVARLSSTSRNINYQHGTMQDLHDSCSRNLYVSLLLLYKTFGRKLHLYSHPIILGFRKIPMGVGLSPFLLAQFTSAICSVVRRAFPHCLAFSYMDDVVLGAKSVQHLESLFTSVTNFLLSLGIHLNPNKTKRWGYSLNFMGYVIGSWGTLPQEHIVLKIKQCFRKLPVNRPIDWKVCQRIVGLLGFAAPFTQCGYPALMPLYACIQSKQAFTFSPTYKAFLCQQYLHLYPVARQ
ASSAY_COMMENT: plate assay, inhibition of DIG-labelled epsilon RNA binding to immobilised protein, luminescence
EXPERIMENTAL_PARAMETERS: 5 pmol DIG-epsilon RNA WT, pH 7.5, room temperature, 3 hr
pIC50: −log10 of the molar value.
QUANTITY: pIC50

>  <RECORD_SMILES>
CCCCCCCC/C=C\CCCCCCCC(=O)NCCc1ccc(O)c(O)c1

>  <EXPERIMENTAL_RESULT>
~6.39

$$$$
